# Tested on: fleas (Ctenocephalides felis)
# Protocol notes: In vitro evaluation of ingestion activity against fleas
# Experimental setup: flea ingestion test, compound in organic bovine blood (0.5% DMSO), adult fleas, percent mortality between 2 h and 48 h post infestation, read-out: EC50 (the source's name)
Attribute: LC50

Check out these entries, answers already filled in.
Name the value of LC50 reported for Cc1cc(C2=NOC(c3cc(C(F)(F)F)cc(Cl)c3F)(C(F)(F)F)C2)ccc1C(=O)NC1CN(S(=O)(=O)C(F)(F)F)C1 (single isomer, unassigned) when tested on fleas (Ctenocephalides felis).
< 3 µg/mL

Using fleas (Ctenocephalides felis) as the test system, report measured LC50 of Cc1cc(C2=NOC(c3cc(C(F)(F)F)cc(Cl)c3F)(C(F)(F)F)C2)ccc1C(=O)N[C@H]1CC[C@@H](C#N)CC1 (single isomer, unassigned) .
< 1 µg/mL

***
Please report the measured LC50 for CS(=O)(=O)CC(=O)N1CC2(C1)OCc1cc(C3=NO[C@](c4cc(C(F)(F)F)cc(C(F)F)c4F)(C(F)(F)F)C3)ccc12 tested on fleas (Ctenocephalides felis).
< 3 µg/mL

Report LC50 on fleas (Ctenocephalides felis) for this entry: Cc1cc(C2=NO[C@](c3cc(C(F)(F)F)cc(Cl)c3F)(C(F)(F)F)C2)ccc1C(=O)N[C@H]1C[C@@H](C(F)(F)F)C1 (single isomer, unassigned)
< 1 µg/mL

Write down the reported LC50 (system: fleas (Ctenocephalides felis)) of Cc1cc(C2=NOC(c3cc(C(F)(F)F)cc(Cl)c3F)(C(F)(F)F)C2)ccc1C(=O)Nc1cccc(C#N)c1 (single isomer, unassigned)
< 3 µg/mL

Report the value of LC50 obtained on fleas (Ctenocephalides felis) for Cc1cc(C2=NOC(c3cc(C(F)(F)F)cc(Cl)c3F)(C(F)(F)F)C2)ccc1C(=O)NC1CC(F)C1 (single isomer, unassigned) .
< 1 µg/mL

Give LC50 for CCN1C[C@H](NC(=O)c2ccc(C3=NOC(c4cc(C(F)(F)F)cc(Cl)c4F)(C(F)(F)F)C3)cc2C)CC1=O (single isomer, unassigned) tested on fleas (Ctenocephalides felis).
< 1 µg/mL

---

Readings of half-life for the listed compounds
# Protocol notes: PK determination following administration to beagle dogs
# Format: in vivo
# Experimental setup: beagle, dog, in vivo
Could you give the number and then its unit, please?

Please list half-life recorded for the compound Cc1cc(C2=NOC(c3cc(C(F)(F)F)cc(Cl)c3F)(C(F)(F)F)C2)sc1C(=O)NCC(=O)NCC(F)(F)F (stereo not shown)
44 days

Output measured half-life for this item: CS(=O)(=O)CC(=O)N1CC2(C1)OCc1cc(C3=NO[C@](c4cc(C(F)(F)F)cc(C(F)F)c4F)(C(F)(F)F)C3)ccc12
36 days

Name the recorded half-life of the item Cc1cc(C2=NOC(c3cc(C(F)(F)F)cc(Cl)c3F)(C(F)(F)F)C2)ccc1C(=O)NCC(=O)NCC(F)(F)F (stereo not shown) in your answer.
50 days

Specify half-life for O=C(CNC(=O)c1ccc(C2=NOC(c3cc(C(F)(F)F)cc(Cl)c3F)(C(F)(F)F)C2)c2ccccc12)NCC(F)(F)F (stereo not shown) and stop.
45 days

---

# Protocol notes: PK determination following administration to beagle dogs
# Type: in vivo
# Experimental setup: dog, in vivo; beagle dogs, single oral gavage (3 or 10 mg/kg) or intravenous dose (1 or 2 mg/kg), LC-MS/MS; read-out: Half-life (converted)
Test readout: half-life (days)
Response body: numeric value in days, unit text excluded.

Use these answered entries as a reference point.
Recall and state the measured half-life for CS(=O)(=O)CC(=O)N1CC2(C1)OCc1cc(C3=NO[C@@](c4cc(Cl)c(F)c(Cl)c4)(C(F)(F)F)C3)ccc12 [sarolaner, reference compound] .
12

Give recorded half-life. Cc1cc(C2=NO[C@@](c3cc(Cl)c(Cl)c(Cl)c3)(C(F)(F)F)C2)sc1C(=O)NCC(=O)NCC(F)(F)F [lotilaner, reference compound]
25

Pending compound:
Tell me its half-life given O=C(CNC(=O)c1ccc(C2=NOC(c3cc(Cl)cc(C(F)(F)F)c3)(C(F)(F)F)C2)c2ccccc12)NCC(F)(F)F (stereo not shown) [afoxolaner, reference compound] as the entry.
15.5

Sourced from patent US12497370B2
